- Test system: ACHN renal
- protocolNotes: NCI-60 one-dose screen, 48 h (100 = growth as untreated, 0 = no growth, -100 = all killed)
- experimentalSetup: 10 µM unless noted
About 83,000 compounds went through this panel and 20% of them were active in at least one assay; those are over-represented in the sample as a whole.
Decide using growth: a value greater than or equal to 60% is Yes, a smaller one is No.

compound	labelValue
CCCCn1c2cc(OCc3cn(-c4ccc(Cl)cc4)nn3)ccc2c2ccnc(C)c21	No
CCCCn1c(=O)c(/C=C/C(=O)/C=C/c2cc3ccccc3n(CCCC)c2=O)cc2ccccc21	No
CCCCCOC(=O)c1ccccc1O	Yes
C=C(C)[C@@H]1CC[C@]2(C(=O)N3CCN(C)CC3)CC[C@]3(C)[C@H](CC[C@@H]4[C@@]5(C)C/C(=C/c6ccco6)C(=O)C(C)(C)[C@@H]5CC[C@]43C)[C@@H]12	Yes
O=C(CSC(=S)N1CCCCC1)Nc1ccccc1	Yes
CC(C)(C)CC(C)(C)Cc1ccc(OCCOCC[N+](C)(C)Cc2ccccc2)cc1	Yes
C#C[C@@]1(O)[C@@H](CO)O[C@@H](n2cc(Cl)c3c(N)ccnc32)[C@@H]1O	Yes
CNc1cccc2c1C(=O)c1cccc(N)c1C2=O	Yes
O=C1NC(c2ccc(F)cc2)N=C2C(c3ccccc3)=NOC12 (stereo not drawn)	Yes
COc1ccc(-c2cc(-c3nnc(SCC(=O)Nc4ccc(C(C)=O)cc4)o3)c3ccccc3n2)cc1	No
COc1cc(C2CC(c3ccc(Nc4nc(NCCO)nc(NCCO)n4)cc3)=NN2c2cc(Cl)cc(Cl)c2)cc(OC)c1OC (stereo not drawn)	Yes
COc1ccc([C@H]2[C@@H](F)C(=O)N2c2cc(OC)c(OC)c(OC)c2)cc1F	No
O=c1nc(-c2ccccc2)c2cc(-c3ccc(N4CCCC4)nc3)ccc2[nH]1	Yes

###

- Test system: SK-MEL-28 melanoma
- protocolNotes: NCI-60 one-dose screen, 48 h (100 = growth as untreated, 0 = no growth, -100 = all killed)
- experimentalSetup: 10 µM unless noted
Compounds without any hit were thinned out: in the full panel of roughly 83,000, 20% have a hit.
Rule for this label: true (1) means growth is less than 80%; false (0) means growth is at least 80%.

molecule	labelValue
C=C(C)[C@@H]1CC[C@]2(C(N)=O)CC[C@]3(C)[C@H](CC[C@@H]4[C@@]5(C)CCCNC(C)(C)[C@@H]5CC[C@]43C)[C@@H]12	false (0)
CC1(C)[C@@H](O)CC[C@]2(C)[C@H]3CC[C@@H]4[C@H]5[C@H](c6cn(-c7ccccc7)nn6)CC[C@]5(CO)CC[C@@]4(C)[C@]3(C)CC[C@@H]12	false (0)
O=c1cc(/C=N\Nc2nc(-c3ccc(Cl)cc3Cl)cs2)c2cc(Cl)ccc2o1	false (0)
COc1ccc(-c2[nH]c3ccccc3c2C=C(C#N)C#N)cc1	true (1)
CC1(c2ccccc2Cl)NC(=O)NC1=O (centres undefined)	false (0)
CC(=O)O[C@@H]1C[C@]2(C)[C@H]3[C@H](O)C[C@@H]4C5=CC(C)(C)CC[C@]5(C)CC[C@@]4(C)[C@]3(C)CC[C@H]2C(C)(C)[C@H]1O	false (0)
Nc1c(C(=O)Nc2ccccc2Cl)sc2nc3c(cc12)CN(Cc1ccccc1)CC3	false (0)
Sc1cccc2cccnc12	true (1)
Cc1nnc(/N=C2\NC(=O)/C(=C/c3ccc(N(C)C)cc3)S2)s1	true (1)
CCC[S@@](=O)c1ccc2nc(NC(=O)OC)[nH]c2c1	false (0)
C#CC[C@@H]1C[C@]2(C)[C@H]3CC[C@@H]4[C@H]5[C@H](C(=C)C)CC[C@]5(C(=O)O)CC[C@@]4(C)[C@]3(C)CC[C@H]2C(C)(C)[C@H]1O	false (0)
COC(=O)CCc1cc(O)c2c(c1)[C@@H](C(=O)OC)[C@H](c1ccc(O)c(O)c1)O2	true (1)
CSc1nc(-c2cccs2)c2c(N)[nH]nc2n1	false (0)
COc1ccc(/C=C(/C(=O)N2CCCC2)c2cc(OC)c(OC)c(OC)c2)cc1	true (1)
COc1ccc(C(=O)c2cc(OC)c(OC)c(OC)c2)cc1OC(=O)C(Cl)(Cl)Cl	true (1)
C=C1C(=O)O[C@H]2[C@H]1CC/C(COC(=O)CCCCCCCC(=O)OC/C1=C/CC[C@@]3(C)O[C@H]3[C@H]3OC(=O)C(=C)[C@@H]3CC1)=C\CC[C@@]1(C)O[C@@H]21	true (1)
O=C1c2ccccc2C(=O)c2c1oc1c2c(=O)[nH]c2ccccc21	false (0)
COc1cccc2c1-c1ccccc1C2=O	true (1)
CCc1c(C(=O)N[C@@H](C(=O)OCc2ccccc2)C(C)O)[nH]c2ccc(Cl)cc12 (some centres undefined)	false (0)
COc1ccc(C(=O)c2cc(OC)c(OC)c(OC)c2)cc1OC(=O)CCl	true (1)
O=C(/C(=C\c1c(-c2ccccc2)[nH]c2ccccc12)S(=O)(=O)c1ccccc1)c1ccccc1	true (1)
C#C[C@@]1(O)[C@@H](CO)O[C@@H](n2cnc3c(-c4ccccc4)ncnc32)[C@@H]1O	false (0)
O=C1C(Cl)=C(NCCCN(CCCNC2=C(Cl)C(=O)c3ccccc3C2=O)C2=C(Cl)C(=O)c3ccccc3C2=O)C(=O)c2ccccc21	true (1)
O=C1NC(c2ccc(F)cc2)N=C2C(c3ccccc3)=NOC12 (centres undefined)	false (0)
COc1cc2c(cc1OC)C(Sc1ccc(Cl)cc1)c1c(nc(N)c(C#N)c1N)O2 (centres undefined)	true (1)
CNC(=O)c1cc(Oc2ccc3c(c2)sc2nc(-c4ccc(NC(C)=O)cc4)cn23)ccn1	true (1)
C1=CC2=CC=C3C=CC=C4C(c5nc6c7ccccc7c7ccccc7c6[nH]5)=CC(=C1)C2C34 (centres undefined)	false (0)

###

- System: M14 melanoma
- protocolNotes: NCI-60 one-dose screen, 48 h
- experimentalSetup: 10 µM unless noted
Compounds without any hit were thinned out: in the full panel of roughly 83,000, 20% have a hit. The source made the active and inactive calls. Rule for the calls: active = growth percent below 10; inactive = the rest.
Classes used: active, inactive

compound	labelValue
CC1(C)Cc2c(Br)c(Br)c(Br)c(OCC(O)CN3CCOCC3)c2O1 (centres undefined)	inactive
O=C(NC[C@H](O)CN1CCc2ccccc2C1)c1cc(NC2COC2)ncn1	inactive
CN(C)CSc1nc2ccccc2s1	inactive
CC[C@]12C=CCN3CC[C@@]4(c5ccc(OC)cc5N(C)[C@H]4[C@@](O)(C(=O)OC)[C@@H]1OC(=O)CCC(=O)O[C@H]1CC[C@H]4[C@@H]5CC[C@H]6CC(=O)CC[C@]6(C)[C@H]5CC[C@]14C)[C@@H]32	inactive
O=C1CCc2ccccc2N1	inactive
Cc1ccc(C(=O)/C(=C/c2ccc([N+](=O)[O-])cc2)S(=O)Cc2ccccc2)cc1 (centres undefined)	active
COC(=O)c1cncc(C(=O)Nc2ccc(-n3cnc4ccccc43)cc2)c1	inactive
O=C(CN1N=C(c2ccc(F)cc2)CCC1=O)Nc1nccs1	inactive
C[C@@H]1C(=O)[C@@H]2C[C@@H](O)[C@@H](O)C[C@]2(C)[C@H]2CC[C@@]3(C)C(=C12)CC[C@@H]3[C@@](C)(O)[C@H](O)CCC(C)(C)O	inactive

###

- Test system: NCI/ADR-RES ovarian
- protocolNotes: NCI-60 one-dose screen, 48 h
- experimentalSetup: 10 µM unless noted
This is part of a sample that, as a whole, favours compounds with a hit. Of some 83,000 tested, about 20% had one in any assay. Calls of active or inactive are those of the source. Rule for the calls: active = growth percent below 10; inactive = the rest.
Possible outcomes: true = active, false = inactive

>>> print(df.to_string())
                                    compound  labelvalue
 0  C=C(C)[C@@H]1CC[C@]2(C(N)=O)CC[C@]3(C)[C@H](CC[C@@H]4[C@@]5(C)CCCNC(C)(C)[C@@H]5CC[C@]43C)[C@@H]12       false
 1  C=C1C(=O)O[C@H]2[C@H]1CC/C(COC(=O)CCC(=O)OC/C1=C/CC[C@@]3(C)O[C@H]3[C@H]3OC(=O)C(=C)[C@@H]3CC1)=C\CC[C@@]1(C)O[C@@H]21       false
 2  COc1cc(NCC(=O)Nc2cc(Nc3ccc(C)cc3)ncn2)c(Cl)c(OC)c1Cl       false
 3          CC(=O)Nc1ccc2c(c1)Cc1cc(F)ccc1-2       false
 4  c1ccc(-c2cn3ccnc3c(-c3ccc4c(c3)ncn4C3CCCCC3)n2)cc1       false
 5  Nn1c(SCC(=O)Nc2ccc(Cl)cc2)nnc1-c1cc(F)c(Cl)cc1Cl       false
 6  OCCNc1nc(NCCO)nc(Nc2ccc(C3=NN(c4cc(Cl)cc(Cl)c4)C(c4ccc(C(F)(F)F)cc4)C3)cc2)n1 (configuration not stated)       false
 7  O=C(CCCCCCCCC(=O)Nc1cccc(C2=NCCN2)c1)Nc1cccc(C2=NCCN2)c1       false
 8  N#Cc1c(-c2ccc(F)cc2)nc(N=Nc2c(O)[nH]c3ccccc23)nc1N1CCOCC1       false
 9  COC(=O)/C=C1\SC(=Nc2ccc(F)cc2)N(CCc2c[nH]c3ccccc23)C1=O       false
10  Nc1c(C(=O)Nc2cccc3ccccc23)sc2nc3c(cc12)COCC3       false
11  Cc1ccc(SC2c3ccc(C)cc3Oc3nc(N)c(C#N)c(N)c32)cc1 (configuration not stated)       false
12  CCOC(=O)/C(=C/c1c(-c2ccccc2)[nH]c2ccccc12)C(=O)c1ccc(Cl)cc1       false
13  CNC(=O)c1cc(Oc2ccc3c(c2)sc2nc(-c4ccc(NC(C)=O)cc4)cn23)ccn1       false
14  COc1ccc2[nH]c(=O)c(/C=C/C(=O)/C=C/c3ccc(O)c(OC)c3)cc2c1       false
15        Cc1cccc(C)c1Nc1nnc(-c2ccc(F)cc2)o1       false
16  O=C(Nc1ccc(S(=O)(=O)NC2CCCCCC2)cc1)C(c1ccccc1)S(=O)(=O)c1ccc(F)cc1 (configuration not stated)       false
17  C=C1C(=O)O[C@H]2[C@H]1CC/C(C=Nc1c(N)cc(C(F)(F)F)cc1Br)=C\CC[C@@]1(C)O[C@@H]21        true
18  CCc1n(Cc2ccc3ccccc3c2)c2ccccc2[n+]1Cc1ccc2ccccc2c1       false
19  COc1ccc(C2=NN(c3ccc(S(N)(=O)=O)cc3)C(c3ccc(Cl)cc3)C2)c(O)c1 (configuration not stated)       false
20  COc1ccc(-n2nc(C(=O)NCC(=O)O)nc2-c2ccccc2)cc1       false
21  OCCNc1nc(NCCO)nc(Nc2ccc(C3=NN(c4cc(Cl)cc(Cl)c4)C(c4ccc(Cl)cc4)C3)cc2)n1 (configuration not stated)       false
